meta.source: PubChem BioAssay AID1963827

Test system: 994946-033-R-J1-PDC complex spheroid viability
Assay: Anticancer human tumor 994946-033-R-J1-PDC patient-derived melanoma cell line growth inhibition [POLQ]
Conditions: curve of first compound; second compound 10 µM

| compound | assay_system | IC50 |
| --- | --- | --- |
| COc1cc(C2c3cc4c(cc3C(OC3OC5COC(C)OC5C(O)C3O)C3COC(=O)C23)OCO4)cc(OC)c1O (stereo not given) + Cc1cccc(N(C)C(=O)C2C(O)CCN2c2nc(C)cc(C(F)(F)F)c2C#N)c1 | 994946-033-R-J1-PDC complex spheroid viability | 1.26 µM |
| CCc1cc2c(N3CCc4c(cc(Cn5ccnc5)cc4-c4cn(C)nc4C(F)(F)F)C3=O)ccnc2c(OC)n1 + COC1C(OC(N)=O)C(O)C(Oc2ccc3c(O)c(NC(=O)c4ccc(O)c(CC=C(C)C)c4)c(=O)oc3c2C)OC1(C)C | 994946-033-R-J1-PDC complex spheroid viability | > 10 µM |
| CC1COCCN1c1cc(C2(S(C)(=N)=O)CC2)nc(-c2ccnc3[nH]ccc23)n1 (stereo not given) + Cc1cccc(N(C)C(=O)C2C(O)CCN2c2nc(C)cc(C(F)(F)F)c2C#N)c1 | 994946-033-R-J1-PDC complex spheroid viability | 6.24 µM |
| COc1cc(C2c3cc4c(cc3C(OC3OC5COC(C)OC5C(O)C3O)C3COC(=O)C23)OCO4)cc(OC)c1O (stereo not given) + COC1C(OC(N)=O)C(O)C(Oc2ccc3c(O)c(NC(=O)c4ccc(O)c(CC=C(C)C)c4)c(=O)oc3c2C)OC1(C)C | 994946-033-R-J1-PDC complex spheroid viability | 0.588 µM |
| C#Cc1c(F)ccc2cc(O)cc(-c3ncc4c(N5CC6CCC(C5)N6)nc(OCC56CCCN5CC(F)C6)nc4c3F)c12 (stereo not given) + COC1C(OC(N)=O)C(O)C(Oc2ccc3c(O)c(NC(=O)c4ccc(O)c(CC=C(C)C)c4)c(=O)oc3c2C)OC1(C)C | 994946-033-R-J1-PDC complex spheroid viability | 5.33 µM |

====

System: 994946-033-R-J1-PDC complex spheroid viability
Test: Anticancer human tumor 994946-033-R-J1-PDC cell line growth inhibition [POLQ];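 note: spheroids exposed to drugs for 7 days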
Conditions: curve of first compound; second compound 0.316 µM
As shown below, each of these compounds has a reported IC50 value.

| compound | IC50 (nM) |
| --- | --- |
| O=C(Nc1ccc(O)c(NS(=O)(=O)c2ccc(F)cc2)c1)c1ccc(-c2ccccc2)cc1 + Nc1ccc(C#CCN(C(=O)Cc2ncc(C(F)(F)F)cc2C(F)(F)F)c2ccc(F)cc2)nn1 | 7550 |
| COc1cccc(OCCCN)c1-c1cc(Nc2cnc(C#N)cn2)n[nH]1 + Cc1cccc(N(C)C(=O)C2C(O)CCN2c2nc(C)cc(C(F)(F)F)c2C#N)c1 | 17.7 |
| C=CCn1c(=O)c2cnc(Nc3ccc(N4CCN(C)CC4)cc3)nc2n1-c1cccc(C(C)(C)O)n1 + Nc1ccc(C#CCN(C(=O)Cc2ncc(C(F)(F)F)cc2C(F)(F)F)c2ccc(F)cc2)nn1 | 397 |

====

System: 994946-033-R-J1-PDC complex spheroid viability
Assay: Anticancer human tumor 994946-033-R-J1-PDC cell line growth inhibition [POLQ];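 note: spheroids exposed to drugs for 7 days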;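 for viability, T/C: 100% = DMSO vehicle treated spheroids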
Conditions: second compound 10 µM; first compound 3.16 µM; stronger effect = lower value

| compound | viability, T/C |
| --- | --- |
| O=C(c1cc(Cc2n[nH]c(=O)c3ccccc23)ccc1F)N1CCN(C(=O)C2CC2)CC1 + COC1C(OC(N)=O)C(O)C(Oc2ccc3c(O)c(NC(=O)c4ccc(O)c(CC=C(C)C)c4)c(=O)oc3c2C)OC1(C)C | 60.8% |
| CCc1cc2c(N3CCc4c(cc(Cn5ccnc5)cc4-c4cn(C)nc4C(F)(F)F)C3=O)ccnc2c(OC)n1 + Nc1ccc(C#CCN(C(=O)Cc2ncc(C(F)(F)F)cc2C(F)(F)F)c2ccc(F)cc2)nn1 | 80.8% |
| O=c1[nH]cc(F)c(=O)[nH]1 + Nc1ccc(C#CCN(C(=O)Cc2ncc(C(F)(F)F)cc2C(F)(F)F)c2ccc(F)cc2)nn1 | 75.3% |
| C#Cc1c(F)ccc2cc(O)cc(-c3ncc4c(N5CC6CCC(C5)N6)nc(OCC56CCCN5CC(F)C6)nc4c3F)c12 (stereo not given) + Nc1ccc(C#CCN(C(=O)Cc2ncc(C(F)(F)F)cc2C(F)(F)F)c2ccc(F)cc2)nn1 | 71% |
| CCCS(=O)(=O)Nc1ccc(F)c(C(=O)c2c[nH]c3ncc(-c4ccc(Cl)cc4)cc23)c1F + Nc1ccc(C#CCN(C(=O)Cc2ncc(C(F)(F)F)cc2C(F)(F)F)c2ccc(F)cc2)nn1 | 95.6% |

====

System: 994946-033-R-J1-PDC complex spheroid viability
Test: Anticancer human tumor 994946-033-R-J1-PDC cell line growth inhibition [POLQ];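 note: spheroids exposed to drugs for 7 days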;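 for viability, T/C: 100% = DMSO vehicle treated spheroids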
Details: second compound 0.1 µM; first compound 0.0316 µM; stronger effect = lower value
I'd appreciate it if you marked entries Fulfilled when viability, T/C is lower than 90% and Not fulfilled when it is not.

| compound | class |
| --- | --- |
| Nc1ccn(C2OC(CO)C(O)C2(F)F)c(=O)n1 (stereo unspecified) + COC1C(OC(N)=O)C(O)C(Oc2ccc3c(O)c(NC(=O)c4ccc(O)c(CC=C(C)C)c4)c(=O)oc3c2C)OC1(C)C | Fulfilled |
| CCc1c2c(nc3ccc(O)cc13)-c1cc3c(c(=O)n1C2)COC(=O)[C@]3(O)CC + Nc1ccc(C#CCN(C(=O)Cc2ncc(C(F)(F)F)cc2C(F)(F)F)c2ccc(F)cc2)nn1 | Fulfilled |
| CC1COCCN1c1cc(-c2ccnn2C)c2ccnc(-c3ccn[nH]3)c2n1 (stereo unspecified) + Nc1ccc(C#CCN(C(=O)Cc2ncc(C(F)(F)F)cc2C(F)(F)F)c2ccc(F)cc2)nn1 | Fulfilled |
| CC1COCCN1c1cc(C2(S(C)(=N)=O)CC2)nc(-c2ccnc3[nH]ccc23)n1 (stereo unspecified) + Nc1ccc(C#CCN(C(=O)Cc2ncc(C(F)(F)F)cc2C(F)(F)F)c2ccc(F)cc2)nn1 | Not fulfilled |
| O=C(Nc1ccc(O)c(NS(=O)(=O)c2ccc(F)cc2)c1)c1ccc(-c2ccccc2)cc1 + Nc1ccc(C#CCN(C(=O)Cc2ncc(C(F)(F)F)cc2C(F)(F)F)c2ccc(F)cc2)nn1 | Not fulfilled |
| C=CCn1c(=O)c2cnc(Nc3ccc(N4CCN(C)CC4)cc3)nc2n1-c1cccc(C(C)(C)O)n1 + Nc1ccc(C#CCN(C(=O)Cc2ncc(C(F)(F)F)cc2C(F)(F)F)c2ccc(F)cc2)nn1 | Not fulfilled |
| CCCS(=O)(=O)Nc1ccc(F)c(C(=O)c2c[nH]c3ncc(-c4ccc(Cl)cc4)cc23)c1F + COC1C(OC(N)=O)C(O)C(Oc2ccc3c(O)c(NC(=O)c4ccc(O)c(CC=C(C)C)c4)c(=O)oc3c2C)OC1(C)C | Not fulfilled |
| Nc1ccn(C2OC(CO)C(O)C2(F)F)c(=O)n1 (stereo unspecified) + Nc1ccc(C#CCN(C(=O)Cc2ncc(C(F)(F)F)cc2C(F)(F)F)c2ccc(F)cc2)nn1 | Fulfilled |
| COc1cc(C2c3cc4c(cc3C(OC3OC5COC(C)OC5C(O)C3O)C3COC(=O)C23)OCO4)cc(OC)c1O (stereo unspecified) + Nc1ccc(C#CCN(C(=O)Cc2ncc(C(F)(F)F)cc2C(F)(F)F)c2ccc(F)cc2)nn1 | Fulfilled |

====

Test system: 994946-033-R-J1-PDC complex spheroid viability
Assay: Anticancer human tumor 994946-033-R-J1-PDC cell line growth inhibition [POLQ];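 note: spheroids exposed to drugs for 7 days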
Conditions: curve of first compound; second compound 10 µM
As shown below, each of these compounds has a reported IC50 value.
reported_property: IC50

| compound | reported_property | observed_measurement |
| --- | --- | --- |
| CCc1c2c(nc3ccc(O)cc13)-c1cc3c(c(=O)n1C2)COC(=O)[C@]3(O)CC + Nc1ccc(C#CCN(C(=O)Cc2ncc(C(F)(F)F)cc2C(F)(F)F)c2ccc(F)cc2)nn1 | IC50 | < 0.00316 µM |
| CNCc1ccc(-c2[nH]c3cc(F)cc4c3c2CCNC4=O)cc1 + Cc1cccc(N(C)C(=O)C2C(O)CCN2c2nc(C)cc(C(F)(F)F)c2C#N)c1 | IC50 | > 10 µM |
| CC1COCCN1c1cc(C2(S(C)(=N)=O)CC2)nc(-c2ccnc3[nH]ccc23)n1 (configuration not stated) + Nc1ccc(C#CCN(C(=O)Cc2ncc(C(F)(F)F)cc2C(F)(F)F)c2ccc(F)cc2)nn1 | IC50 | > 10 µM |
| O=c1[nH]cc(F)c(=O)[nH]1 + Nc1ccc(C#CCN(C(=O)Cc2ncc(C(F)(F)F)cc2C(F)(F)F)c2ccc(F)cc2)nn1 | IC50 | > 10 µM |
| COc1cc2cc(C(=O)CCC(=O)O)sc2cc1OC + Nc1ccc(C#CCN(C(=O)Cc2ncc(C(F)(F)F)cc2C(F)(F)F)c2ccc(F)cc2)nn1 | IC50 | > 10 µM |
| Cn1ncnc1[C@H]1c2n[nH]c(=O)c3cc(F)cc(c23)N[C@@H]1c1ccc(F)cc1 + Nc1ccc(C#CCN(C(=O)Cc2ncc(C(F)(F)F)cc2C(F)(F)F)c2ccc(F)cc2)nn1 | IC50 | > 0.1 µM |
| C=CC(=O)N1CCN(c2nc(=O)n(-c3c(C)ccnc3C(C)C)c3nc(-c4c(O)cccc4F)c(F)cc23)C(C)C1 (configuration not stated) + Cc1cccc(N(C)C(=O)C2C(O)CCN2c2nc(C)cc(C(F)(F)F)c2C#N)c1 | IC50 | > 10 µM |
